FYI, the data here is from ChEMBL document CHEMBL4308891.

Test system: MDA-MB-231
Assay: Ex vivo antitumor activity against human MDA-MB-231 cells co-cultured with neonatal Swiss mouse bone in BGJb medium assessed as inhibition of tumor growth at 5 uM administered simultaneously with cancer cells measured on day 5 post treatment by Gaussia luciferase reporter gene assay relative to control
Format: functional
Calls of active or inactive are those of the source. The rule behind the calls is not given here.
MEASUREMENT KIND: TGI

The examples below pair each entry with its known result.
> print(dat)
                                   compound  measurement.kind  reported.result
1  O=C1C2NN=C(c3ccc(Cl)cc3)C2C(c2ccc(C(F)(F)F)cc2)N1CCc1c[nH]c2ccccc12 (stereo not given)               TGI           Active
2  O=C1C2C(C(c3ccc(Cl)cc3)=NN2C2CCCCC2)C(c2cccc(F)c2)N1CCc1c[nH]c2ccccc12 (stereo not given)               TGI           Active
3  Cc1ccc(N2C(=O)C3NN=C(c4ccc(Cl)cc4)C3C2c2cccc(C(F)(F)F)c2)cc1Br (stereo not given)               TGI           Active
4  CC(C)N1N=C(c2ccc(Cl)cc2)C2C(c3cccc(F)c3)N(CCc3c[nH]c4ccccc34)C(=O)C21 (stereo not given)               TGI           Active

Fetch value of TGI on MDA-MB-231 for CCCN1N=C(c2ccc(Cl)cc2)C2C1C(=O)N(c1ccc(C)c(Br)c1)C2c1cccc(F)c1 (stereo not given) .
Active

====

System: MDA-MB-231
Experiment: Ex vivo antitumor activity against human MDA-MB-231 cells co-cultured with neonatal Swiss mouse bone in BGJb medium assessed as inhibition of tumor growth at 5 uM administered on day 2 post cancer cells addition measured on day 5 post treatment by Gaussia luciferase reporter gene assay relative to control
Type: functional
The source made the active and inactive calls. The calls are words filed in the database; no cut-off is given here.
MEASUREMENT KIND: TGI

Reference set, count: 4
> print(dat)
                                   compound  reported.result
1  O=C1C2NN=C(c3ccc(Cl)cc3)C2C(c2cccc(F)c2)N1CCc1c[nH]c2ccccc12 (stereo not given)              53%
2  CC(C)N1N=C(c2ccc(Cl)cc2)C2C(c3cccc(F)c3)N(CCc3c[nH]c4ccccc34)C(=O)C21 (stereo not given)           Active
3  Cc1ccc(N2C(=O)C3C(C(c4ccc(Cl)cc4)=NN3C)C2c2cccc(F)c2)cc1Br (stereo not given)           Active
4  O=C1C2NN=C(c3ccc(Cl)cc3)C2C(c2cccc(F)c2)N1Cc1c[nH]c2ccccc12 (stereo not given)           Active

Next up:
Retrieve TGI measured for O=C1C2NN=C(c3ccc(Cl)cc3)C2C(c2ccc(C(F)(F)F)cc2)N1CCc1c[nH]c2ccccc12 (stereo not given) and print it.
Active

====

Tested on: MDA-MB-231
Assay: Ex vivo antitumor activity against human MDA-MB-231 cells co-cultured with neonatal Swiss mouse bone in BGJb medium assessed as inhibition of tumor growth at 5 uM administered simultaneously with cancer cells measured on day 5 post treatment by Gaussia luciferase reporter gene assay relative to control
Format: functional
Active and inactive are the calls of the source. No cut-off for these calls is given here.
MEASUREMENT KIND: TGI

Past entries and their recorded results:
> print(dat)
                                   compound  experimental.target  measurement.kind  reported.result
1  O=C1C2NN=C(c3ccc(Cl)cc3)C2C(c2cccc(F)c2)N1CCc1c[nH]c2ccccc12 (centres undefined)           MDA-MB-231               TGI              70%
2  COc1ccc(N2C(=O)C3NN=C(c4ccc(Cl)cc4)C3C2c2cccc(F)c2)cn1 (centres undefined)           MDA-MB-231               TGI           Active
3  Cc1ccc(N2C(=O)C3C(C(c4ccc(Cl)cc4)=NN3C)C2c2cccc(F)c2)cc1Br (centres undefined)           MDA-MB-231               TGI           Active
4  O=C1C2NN=C(c3ccc(Cl)cc3)C2C(c2cccc(F)c2)N1CCc1cccnc1 (centres undefined)           MDA-MB-231               TGI           Active
5  Cc1ccc(N2C(=O)C3NN=C(c4ccc(Cl)cc4)C3C2c2cccc(F)c2)cc1Br (centres undefined)           MDA-MB-231               TGI              70%
6  O=C1C2NN=C(c3ccc(Cl)cc3)C2C(c2cccc(F)c2)N1c1cccc(Br)c1 (centres undefined)           MDA-MB-231               TGI           Active

# batch size: 3; output TGI per entry
1. Cc1ccc(N2C(=O)C3C(C(c4ccc(Cl)cc4)=NN3C(C)C)C2c2cccc(F)c2)cc1Br (centres undefined)
2. COc1cccc(C2=NNC3C(=O)N(CCc4c[nH]c5ccccc45)C(c4cccc(F)c4)C23)c1 (centres undefined)
3. O=C1C2NN=C(c3ccc(Cl)cc3)C2C(c2cccc(F)c2)N1Cc1c[nH]c2ccccc12 (centres undefined)

1. Active
2. Active
3. Active
